The following compounds are shown together with reported composite z-score values.
- System: wheat germ agglutinin (Triticum aestivum), Alexa647-labelled
- test_summary: Alexa647-WGA lectin binding to printed small molecules – biochemical, small-molecule microarray, 635/667 nm fluorescence, artefact control for SMM control-protein annotation, profiling panel (AID 1140);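 note: score merges 667 nm feature emission with signal to noise over triplicate slides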
- setup_conditions: WGA-A647 binding, 635 nm fluorescence, higher = more signal
Form: value (number only, do not type unit).

compound | composite z-score
COc1ccc([Si](C)(C)[C@H]2[C@H](CC(=O)N(CCO)Cc3ccccc3)O[C@@]3(C(=O)N(Cc4cccc(N5C(=O)c6cccc7cccc5c67)c4)c4ccccc43)[C@@H]2C)cc1 | 0.862
CC(c1ccccc1)C(O)C1C=CC2C(=O)N(c3ccccc3)C(=O)C2N1Nc1ccccc1F (centres undefined) | 0.439
Cc1ccc(S[C@]2(C(=O)NCc3ccccc3)CC(=O)N(Cc3cc(C(F)(F)F)cc(C(F)(F)F)c3)[C@@H]2c2ccc(CO)cc2)cc1 | -1.01

Now look at this entry.
The compound identified as C=C[C@@H](C)[C@@H](OC(=O)Nc1ccc(OC)cc1)c1ccc(O)c2ccccc12 registered its composite z-score at 0.449

----------
- target_under_test: Torsin-1A (Homo sapiens)
- test_summary: torsin A mutant lysate binding on microarrays – cell lysate, small-molecule microarray, COS7 lysate, 635/667 nm fluorescence, primary screen (AID 1150);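 note: score pools 667 nm emission and signal to noise measuring lysate protein binding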
- setup_conditions: COS7 hTOR1A mutant lysate, 635 nm fluorescence, higher = more signal
reported_endpoint: composite z-score
The reply should be a number, written without any unit.

Lab note: [N-]=[N+]=Nc1ccccc1[C@H]1OC(c2ccc(OCCCO)cc2)=N[C@@]1(CCS(=O)(=O)c1ccccc1)C(=O)N1CCOCC1 gave composite z-score of 0.923

Record summary for COc1ccc(CCNC(=O)[C@@]2(C)c3ccccc3C(=O)N(Cc3ccccc3)[C@H]2c2ccc(CO)cc2)cc1 : reported composite z-score = 1.67

Value of measured composite z-score for the entry O=C1O[C@@H](c2ccccc2)[C@@H](c2ccccc2)N2[C@@H](c3ccc(O)cc3)[C@]3(C(=O)Nc4ccc(C#CCCO)cc43)[C@@H](C(=O)O)[C@H]12 : -0.0978

The recorded composite z-score for COC(=O)[C@@]1(Cc2ccc(OC)cc2)[C@H]2c3cc(C(=O)N(C)C)n(Cc4ccc(OC)c(OC)c4)c3C[C@H]2CN1C(=O)c1ccccc1 is 1.17

compound CO[C@H]1O[C@H](CO)[C@@H](OC(=O)Nc2cccc(F)c2)[C@H](OC(=O)Nc2ccccc2-c2ccccc2)[C@@H]1OC(=O)Nc1ccccc1-c1ccccc1 , composite z-score observed: 0.886

// composite z-score lookup, compound = C=CCC(OC(C)=O)[C@@H]1[C@@H](N(Cc2ccc(-c3cccc(C(F)(F)F)c3)o2)C(=O)c2ccc(C)cc2)c2cc(OCCCO)ccc2N1C(=O)c1ccc2ccccc2n1 (stereo partly specified) , result: 0.114

----------
Catalogue of composite z-score readings, one per entry.
- target_under_test: Alpha-bungarotoxin (Bungarus multicinctus) (UniProt P60615)
- Sequence (P60615 whole entry, looked up): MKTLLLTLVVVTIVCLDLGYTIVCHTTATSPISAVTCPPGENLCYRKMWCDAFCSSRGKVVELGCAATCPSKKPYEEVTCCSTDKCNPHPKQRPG
- test_summary: compounds binding labelled alpha-BTX control protein – biochemical, small-molecule microarray, Alexa647 label, 635/667 nm fluorescence, artefact control for SMM control protein annotation, profiling panel (AID 1117)
- setup_conditions: alpha-BTX-A647 binding fluorescence, higher = more signal
Lab note: record the figure alone, no unit after it.

molecule | composite z-score
O=C1NC(=O)C2C1C=CC(C(O)c1cccs1)N2Nc1ccccn1 (stereo not given) | 1.19

Sure, the documented composite z-score for COc1ccc(C#Cc2ccc3c(c2)[C@]2(C(=O)N3)[C@H](c3ccc(OCCO)cc3)N3[C@H](c4ccccc4)[C@H](c4ccccc4)OC(=O)[C@H]3[C@@H]2C(=O)Nc2nc3ccccc3s2)cc1 is 1.52

Please fill in: composite z-score reported for O=C1C[C@@](C(=O)O)(c2ccc([N+](=O)[O-])cc2)[C@@H](c2ccc(CO)cc2I)N1CC12CC3CC(CC(C3)C1)C2 = 2.3

composite z-score reading for COCCCNC(=O)[C@@]1(C)c2ccccc2C(=O)N(Cc2ccccc2)[C@H]1c1ccc(CO)cc1 : -0.564

Short answer for CN1C(=O)C2C(C1=O)C1C=C(c3ccc(CO)cc3)C2C(C2CC2)N1Cc1sc2ccccc2c1Cl (stereo not given) : composite z-score was 2.87

----------
- test_summary: optical density shifts of acrAB sulA E. coli – strain DRC41, OD650, 48 h, E. coli filamentation inducer project, primary screen (AID 1152);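 note: E. coli MC1000 strain DRC41 lacking acrAB efflux pump and sulA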
- setup_conditions: higher = more signal, called active from +8 up or from −8 down
Record met whenever z-score is at -0.2 or higher; record not met when lower.

Solved entries:
compound | answer_label
O=C1C2C=CC(C(O)CCc3ccccc3)N(Nc3ccccc3)C2C(=O)N1c1ccccc1 (stereo not given) | not met
CCCC[C@@H]1C[C@H]1[C@@H](NC(=O)c1ccccc1)c1ccccc1 | not met

Input: Determine whether this compound has z-score no lower than -0.2: C=CCC(OC(C)=O)[C@@H]1[C@@H](N(Cc2ccc(-c3ccccc3)cc2)C(=O)c2ccc(C)cc2)c2cc(OCCCO)ccc2N1C(=O)Cc1ccc(OC)cc1 (stereo not given in full)
Output: met

Input: Hi team, for Oc1ccc2cc[n+](Cc3cccc(OC(F)(F)F)c3)cc2c1 , is the recorded z-score at or above -0.2?
Output: met

Input: Confirm if z-score reported for the compound CN(C)CCCC[C@@H]1NC(=O)[C@@H]2C[C@H](C(=O)NCc3ccc(F)cc3)[C@H](c3cccc(OCCO)c3)N2C1=O is -0.2 or above.
Output: met

----------
- test_summary: small molecules captured by biotinylated probe aFST – biochemical, small-molecule microarray, fluorescence 635/667, stem cell growth factor project, primary screen (AID 1086);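 note: score merges 667 nm fluorescence with signal-to-noise of each printed compound spot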
- setup_conditions: higher = more signal
Each item that follows carries a reported composite z-score.
In your answer, state the number alone without any accompanying words.

compound | composite z-score
O=C1NC(=O)C2C1C=CC(C(O)c1cccs1)N2Nc1ccccn1 (stereo not drawn) | 0.282
CC(C)C(=C=CC[C@H](O)c1ccccc1OCCO)CCO | -0.0031
[N-]=[N+]=NCc1ccccc1C[C@]1(C(=O)NCc2ccccc2)COC(c2ccc(OCCCO)cc2)=N1 | 0.534
COCCOC(=O)N1C(=O)[C@@]2(c3ccccc31)[C@H](C(=O)N1CCCCCCC1)[C@H]1C(=O)O[C@H](c3ccccc3)[C@H](c3ccccc3)N1[C@@H]2c1ccccc1OCCO | 3.36
C=CCOC(=O)[C@H]1[C@@H]2C(=O)O[C@@H](c3ccccc3)[C@@H](c3ccccc3)N2[C@@H](c2ccc(OCCOC(=O)[C@@H]3C[C@@H]4C(=O)NCC(=O)N4[C@@H]3c3ccc(O)cc3)cc2)[C@]12C(=O)Nc1ccc(I)cc12 | 0.317
CN(C)CCCCCCNC(=O)[C@@H]1C[C@@H]2C(=O)N[C@@H](Cc3ccccc3)C(=O)N2[C@@H]1c1cccc(OCCO)c1 | 0.258

Entry under test: CC(C)C[C@@H]1NC(=O)[C@@H]2C[C@H](C(=O)NCCCCN(C)C)[C@H](c3ccc(O)cc3)N2C1=O . Its composite z-score was -0.819

Per the record, C=CCC(OC(C)=O)[C@@H]1[C@@H](N(Cc2ccc(-c3ccccc3)cc2)C(=O)c2ccc(C)cc2)c2cc(OCCCO)ccc2N1C(=O)Cc1ccc(OC)cc1 (stereo partly drawn) has composite z-score of 0.255

----------
- test_summary: small molecules captured by biotinylated probe aFSTL3 – biochemical, small-molecule microarray, fluorescence 635/667, stem cell growth factor project, primary screen (AID 1064);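 note: measures binding of the biotinylated anti-FSTL3 antibody to printed compounds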
- setup_conditions: higher = more signal
reported_endpoint: composite z-score
# respond with the number and nothing more

// known answers, use as guide
input_smiles | composite z-score
C=C(CCCC)C(=O)CC[C@@H](OC(=O)c1ccccc1-c1ccccc1C(=O)O)c1ccc(CO)o1 | -0.241
COC(=O)[C@@]1(Cc2ccc(OC)cc2)[C@H]2c3cc(C(=O)N(C)C)n(Cc4ccc(OC)c(OC)c4)c3C[C@H]2CN1C(=O)c1ccccc1 | 0.42
COc1ccc([Si](C)(C)[C@@H]2[C@@H](CCn3cc([C@H](O)c4ccccc4)nn3)O[C@]3(C(=O)N(C)c4ccccc43)[C@H]2C)cc1 | -0.266
COc1ccccc1CN1C(=O)c2ccccc2[C@](Cc2ccccc2I)(C(=O)NC2CC2)[C@@H]1c1ccc(CO)cc1 | -0.532
O=C(NCc1ccccc1)[C@@H]1c2ccccc2C(=O)N(Cc2cc(F)cc(C(F)(F)F)c2)[C@H]1c1ccc(CO)cc1 | -0.307

For COc1cc(CO)cc(I)c1O[C@H]1C=C(C(=O)NCCO)C[C@@H](N(CCc2cccc(F)c2)C(=O)CCC2CCCC2)[C@@H]1O the compound record lists composite z-score as 0.0822

composite z-score reported for this compound COc1ccc(C#Cc2ccc3c(c2)[C@]2(C(=O)N3)[C@H](C(=O)N3CCc4cc(OC)c(OC)cc4C3)[C@H]3C(=O)O[C@H](c4ccccc4)[C@H](c4ccccc4)N3[C@@H]2c2ccc(OCCO)cc2)cc1 : -0.304

// recorded composite z-score for COCCCNC(=O)[C@]1(Cc2ccccc2N=[N+]=[N-])N=C(c2ccc(OCCCO)cc2)O[C@@H]1c1ccccc1CN=[N+]=[N-] : 0.201

Recorded composite z-score (compound COC(=O)C(CC#Cc1ccc2c(c1)[C@]1(C(=O)N2)[C@H](C(=O)N2CCCCCCC2)[C@H]2C(=O)O[C@H](c3ccccc3)[C@H](c3ccccc3)N2[C@@H]1c1ccccc1OCCO)C(=O)OC ): 3.68

composite z-score reading for COCCOC(=O)N1C(=O)[C@@]2(c3cc(C#CCC(C(=O)OC)C(=O)OC)ccc31)[C@H](c1ccc(OCCO)cc1)N1[C@H](c3ccccc3)[C@H](c3ccccc3)OC(=O)[C@H]1[C@@H]2C(=O)NC[C@H](O)c1ccccc1 : -1.25

The compound identified as C#C[C@H]1Oc2ccccc2S(=O)(=O)N2CCC[C@@H]12 registered its composite z-score at 0.246

According to the records, this compound COCCn1c(C(=O)N2CCCC2)cc2c1C[C@H]1CN(C(=O)c3ccccc3)[C@@](Cc3ccc(OC)cc3)(C(=O)OC)[C@@H]21 displays composite z-score of 1.42

Record COC(=O)[C@@]1(Cc2ccc(F)cc2)[C@H]2c3cc(C(=O)N(C)C)n(CCCNc4ccc(C(F)(F)F)cc4Cl)c3C[C@H]2CN1C(=O)c1ccccc1 . Reported composite z-score: 0.785
